# Study system: P. aeruginosa gyrase (Pseudomonas aeruginosa, UniProt P48372+Q9I7C2)
# Sequence (Q9I7C2 whole entry): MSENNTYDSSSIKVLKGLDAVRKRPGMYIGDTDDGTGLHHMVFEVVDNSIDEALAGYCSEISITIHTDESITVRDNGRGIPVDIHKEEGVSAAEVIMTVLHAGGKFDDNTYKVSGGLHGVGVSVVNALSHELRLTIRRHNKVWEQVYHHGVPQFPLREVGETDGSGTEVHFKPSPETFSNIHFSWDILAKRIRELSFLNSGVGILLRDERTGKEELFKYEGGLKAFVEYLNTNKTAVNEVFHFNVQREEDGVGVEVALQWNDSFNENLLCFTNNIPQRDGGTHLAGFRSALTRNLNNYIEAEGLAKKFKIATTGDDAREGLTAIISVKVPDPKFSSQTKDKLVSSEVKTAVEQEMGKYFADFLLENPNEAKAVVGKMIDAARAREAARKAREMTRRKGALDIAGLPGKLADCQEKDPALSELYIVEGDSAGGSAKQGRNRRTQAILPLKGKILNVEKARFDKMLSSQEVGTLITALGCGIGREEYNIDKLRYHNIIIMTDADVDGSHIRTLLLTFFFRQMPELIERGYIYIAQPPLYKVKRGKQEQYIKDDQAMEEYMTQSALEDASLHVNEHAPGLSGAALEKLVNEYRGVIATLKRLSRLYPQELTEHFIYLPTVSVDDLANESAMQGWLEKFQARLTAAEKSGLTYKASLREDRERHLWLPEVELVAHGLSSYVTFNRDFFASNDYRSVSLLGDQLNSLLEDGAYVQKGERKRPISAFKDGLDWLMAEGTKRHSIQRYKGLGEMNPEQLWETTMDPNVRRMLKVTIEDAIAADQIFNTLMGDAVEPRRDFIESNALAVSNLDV
# Sequence (P48372 whole entry): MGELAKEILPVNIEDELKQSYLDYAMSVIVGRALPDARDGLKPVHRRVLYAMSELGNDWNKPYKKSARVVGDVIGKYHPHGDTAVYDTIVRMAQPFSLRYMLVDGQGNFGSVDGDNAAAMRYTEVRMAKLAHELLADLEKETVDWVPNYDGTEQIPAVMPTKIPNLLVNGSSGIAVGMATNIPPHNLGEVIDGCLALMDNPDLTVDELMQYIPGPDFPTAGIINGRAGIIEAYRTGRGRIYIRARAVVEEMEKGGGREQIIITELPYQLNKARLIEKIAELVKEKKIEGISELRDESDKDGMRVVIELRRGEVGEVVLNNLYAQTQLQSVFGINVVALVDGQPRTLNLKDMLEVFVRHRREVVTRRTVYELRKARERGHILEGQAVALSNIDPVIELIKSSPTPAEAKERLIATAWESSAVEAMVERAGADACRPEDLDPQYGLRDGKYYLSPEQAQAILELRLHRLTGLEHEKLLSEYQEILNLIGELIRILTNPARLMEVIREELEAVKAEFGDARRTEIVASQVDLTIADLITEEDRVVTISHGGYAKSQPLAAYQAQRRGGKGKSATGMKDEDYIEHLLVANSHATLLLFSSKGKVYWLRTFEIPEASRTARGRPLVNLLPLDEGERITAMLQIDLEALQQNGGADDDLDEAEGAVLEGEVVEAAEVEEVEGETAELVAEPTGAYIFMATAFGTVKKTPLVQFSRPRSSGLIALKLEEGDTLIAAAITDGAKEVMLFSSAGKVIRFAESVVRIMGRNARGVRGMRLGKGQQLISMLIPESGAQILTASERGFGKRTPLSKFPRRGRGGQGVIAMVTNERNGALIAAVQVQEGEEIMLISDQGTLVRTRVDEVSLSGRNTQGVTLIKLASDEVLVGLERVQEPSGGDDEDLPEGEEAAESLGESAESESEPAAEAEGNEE
# Assay overview: biochemical
Reported property: pIC50
Please express pIC50 as -log10 of the molar concentration.

[ask] Quote pIC50 with test system P. aeruginosa gyrase (Pseudomonas aeruginosa, UniProt P48372+Q9I7C2) for O=c1ccc2ncc(=O)n3c2n1C[C@H]3CN1CCC(NCc2cc3c(cn2)OCCC3)CC1 [Gepotidacin, reference compound]
[reply] 6.46

[ask] Quote pIC50 with test system P. aeruginosa gyrase (Pseudomonas aeruginosa, UniProt P48372+Q9I7C2) for Cn1c(=O)ccc2ccc(F)c(CCNC[C@H]3CN(c4cnc5c(n4)NC(=O)CO5)C(=O)O3)c21
[reply] 8.03
